target: Luciferin 4-monooxygenase (Photinus pyralis) (UniProt P08659); test: qHTS profiling assay for firefly luciferase inhibitor/activator using purifed enzyme and Km concentrations of substrates (counterscreen for miR-21 project); details: purified FLuc, luminescence inhibition; series mostly up to 57.5 µM; note: nearly all actives have a fitted effect of over 55% in size
Sequence (P08659 whole entry, looked up): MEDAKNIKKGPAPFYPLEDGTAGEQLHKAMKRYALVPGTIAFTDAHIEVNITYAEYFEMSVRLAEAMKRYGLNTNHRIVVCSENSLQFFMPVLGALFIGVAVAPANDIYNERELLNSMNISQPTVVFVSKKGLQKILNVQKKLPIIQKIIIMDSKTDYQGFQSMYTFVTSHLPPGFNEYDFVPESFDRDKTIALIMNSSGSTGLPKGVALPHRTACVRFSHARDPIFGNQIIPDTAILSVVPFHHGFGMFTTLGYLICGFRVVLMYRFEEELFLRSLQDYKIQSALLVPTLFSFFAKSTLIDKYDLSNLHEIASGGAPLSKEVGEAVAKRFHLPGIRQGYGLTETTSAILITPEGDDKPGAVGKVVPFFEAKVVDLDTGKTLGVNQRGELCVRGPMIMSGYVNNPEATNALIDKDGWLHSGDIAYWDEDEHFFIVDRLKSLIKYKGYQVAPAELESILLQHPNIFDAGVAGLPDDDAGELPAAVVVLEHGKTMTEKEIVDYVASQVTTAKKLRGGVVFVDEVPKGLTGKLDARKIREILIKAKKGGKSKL
In all, about 360,000 compounds went through this assay and about 25,000 (6.9%) were called active. Not shown: some 9% with an inconclusive outcome. Calls come from the whole dose curve; as a rule, active = well fitted inhibition curve with a large enough effect; inconclusive = small, poorly fitted or top-dose-only effect; inactive = flat fitted curve, though single readings scatter. The entries come from a sample that favours actives as a whole.
Labels: t for active, f for inactive

# molecule, assayedTarget, group
measured = [
    ("COc1ccc(C(=O)OC(C)C(=O)NC2CCCC2)cc1S(=O)(=O)N1CCOCC1 (stereo unspecified)", "Luciferin 4-monooxygenase (Photinus pyralis) (UniProt P08659)", "f"),
    ("COc1ccccc1OCC(=O)OCn1c(SC)nnc(C)c1=O", "Luciferin 4-monooxygenase (Photinus pyralis) (UniProt P08659)", "f"),
    ("CC(C)(C)NC(=O)NC(=O)COC(=O)CCC1CCCCC1", "Luciferin 4-monooxygenase (Photinus pyralis) (UniProt P08659)", "f"),
    ("COc1ccccc1OCC(=O)OCc1cc(-c2ccco2)on1", "Luciferin 4-monooxygenase (Photinus pyralis) (UniProt P08659)", "f"),
    ("Oc1ccc(/C=N/N(Cc2ccccc2)c2ccccc2)cc1", "Luciferin 4-monooxygenase (Photinus pyralis) (UniProt P08659)", "f"),
    ("N/C(=N\\OC(=O)CCC1CCCCC1)c1ccccn1", "Luciferin 4-monooxygenase (Photinus pyralis) (UniProt P08659)", "t"),
]

###

molecular target: Luciferin 4-monooxygenase (Photinus pyralis) (UniProt P08659); assay: qHTS profiling assay for firefly luciferase inhibitor/activator using purifed enzyme and Km concentrations of substrates (counterscreen for miR-21 project); conditions: purified FLuc, luminescence inhibition; series mostly up to 57.5 µM; note: nearly all actives have a fitted effect of over 55% in size; note: potency is the fitted concentration of half-maximal effect
The campaign covered roughly 360,000 compounds. About 25,000 (6.9%) were called active. Not shown: some 9% with an inconclusive outcome. This is one part of a sample in which actives are shown more often than they occur.

# compound, Potency
records = [
    ("CCOC(=O)c1sc(NC(=O)CSc2n[nH]c(CC)n2)nc1C", "inactive"),
    ("C(=N\\n1cnnc1)/c1cccnc1", "inactive"),
    ("CCOC(=O)c1sc(/N=C/Nc2nc(C)c(C(=O)OCC)s2)nc1C", "inactive"),
    ("COc1cccc(CNC(=O)CCc2nc(-c3ccc(C)cc3)no2)c1", "inactive"),
    ("Cc1ccccc1C1=N/C(=C/c2cccnc2)C(=O)O1", "8.49 µM (active)"),
    ("CCOC(=O)c1sc(NC(=O)c2sc(C)nc2C)nc1C", "6.01 µM (active)"),
    ("CC(C)(C)C1C/C(=C/c2ccco2)C(=O)/C(=C/c2ccco2)C1 (configuration not stated)", "inactive"),
    ("CCOC(=O)c1sc(NC(=O)c2ccncc2)nc1C", "19 µM (active)"),
    ("CCNC(=O)CCc1nc(-c2ccc(C)cc2)no1", "inactive"),
    ("Cc1cccc(C(=O)Nc2ccc(S(=O)(=O)N3CCCCC3c3cccnc3)cc2)c1 (configuration not stated)", "inactive"),
    ("COc1ccc(C(=O)c2oc3ccccc3c2NC(=O)COc2cccc(C)c2)cc1", "inactive"),
    ("Cc1ccsc1/C=N/n1c(=S)[nH]nc(C)c1=O", "inactive"),
]
